# System: human Notch 1
# Test: Notch-CBF1 Transactivation Assay (Notch 1)
# Assay type: cell-based
# Experimental conditions: read-out: Notch 1 (IC50); HeLa cells transfected with truncated Notch 1 and CBF1 luciferase reporter; 18 hours; average of N experiments
Quantity name: pIC50
pIC50 is a log-scale quantity: -log10 of the concentration expressed in molar.

COc1cccc2c1NC(=O)[C@@H](NC(=O)[C@H](CCC(F)(F)F)[C@H](CCCF)C(N)=O)N=C2c1ccccc1 [Example 16] : 8.15
C[C@@H](C[C@H](C(N)=O)[C@@H](CCC(F)(F)F)C(=O)N[C@H]1N=C(c2ccccc2)c2cccc(F)c2NC1=O)C(F)(F)F [Example 19] : 8.54

Let's switch to this compound now.
Value (pIC50, human Notch 1) for record C[C@H](C[C@H](C(N)=O)[C@@H](CCC(F)(F)F)C(=O)N[C@H]1N=C(c2ccccc2)c2cccc(Cl)c2NC1=O)C(F)(F)F [Example 22] = 8.49

====

Let's look at some compounds and their measured half-life at 0.5 µM.
# Test: Human metabolic stability half-life assay
# Type: in vitro ADME
# Experimental conditions: pH 7.4; human liver microsomes, NADPH, 0.5 μM compound, 45-minute time course; read-out: HLM (t1/2, min)
// units = min; emit number, no label

Reference set, count: 2
Cc1cccc2c1NC(=O)[C@@H](NC(=O)[C@H](CCC(F)(F)F)[C@H](CC1CC(F)(F)C1)C(N)=O)N=C2c1cccc(F)c1 [Example 9] : 91
Cc1cccc2c1NC(=O)[C@@H](NC(=O)[C@H](CCC(F)(F)F)[C@H](CC1(F)CCC1)C(N)=O)N=C2c1ccccc1 [Example 25] : 33

Let's switch to this compound now.
COc1cccc2c1NC(=O)[C@@H](NC(=O)[C@H](CCC(F)(F)F)[C@@H](C(N)=O)C1CCC(F)(F)CC1)N=C2c1ccccc1 [Example 2] has a reported half-life at 0.5 µM of 43

====

# Test system: human Notch 1
# Test: Notch-CBF1 Transactivation Assay (Notch 1)
# Format: cell-based
# Experimental conditions: read-out: Notch 1 (IC50); HeLa cells transfected with truncated Notch 1 and CBF1 luciferase reporter; 18 hours; average of N experiments
Quantity name: pIC50
pIC50 is a log-scale quantity: -log10 of the concentration expressed in molar.

NC(=O)[C@@H](CC1CC(F)(F)C1)[C@@H](CCC(F)(F)F)C(=O)N[C@H]1N=C(c2ccccc2)c2ccccc2NC1=O [Example 15] : 8.36
NC(=O)[C@@H](C1CC(F)(F)C1)[C@@H](CCC(F)(F)F)C(=O)N[C@H]1N=C(c2ccccc2)c2ccccc2NC1=O [Example 6] : 7.85
CC(F)(F)CC[C@H](C(N)=O)[C@@H](CCC(F)(F)F)C(=O)N[C@H]1N=C(c2ccccc2)c2cccc(Cl)c2NC1=O [Example 24] : 8.41
COc1cccc2c1NC(=O)[C@@H](NC(=O)[C@H](CCC(F)(F)F)[C@@H](C(N)=O)C1CCC(F)(F)CC1)N=C2c1ccccc1 [Example 2] : 8.15
NC(=O)[C@@H](CC1CC(F)(F)C1)[C@@H](CCC(F)(F)F)C(=O)N[C@H]1N=C(c2ccccc2)c2cccc(Cl)c2NC1=O [Example 13] : 8.55

C[C@@H](C[C@H](C(N)=O)[C@@H](CCC(F)(F)F)C(=O)N[C@H]1N=C(c2ccccc2)c2cccc(Cl)c2NC1=O)C(F)(F)F [Example 23] has a reported pIC50 of 8.29

====

Let's look at some molecules and their measured half-life at 0.5 µM.
# Test: Human metabolic stability half-life assay
# Format: in vitro ADME
# Experimental conditions: pH 7.4; human liver microsomes, NADPH, 0.5 μM compound, 45-minute time course; read-out: HLM (t1/2, min)
// units = min; emit number, no label

COc1cccc2c1NC(=O)[C@@H](NC(=O)[C@H](CCC(F)(F)F)[C@H](CCCF)C(N)=O)N=C2c1ccccc1 : 88
COc1cccc2c1NC(=O)[C@@H](NC(=O)[C@H](CCC(F)(F)F)[C@H](CCC(C)(F)F)C(N)=O)N=C2c1ccccc1 : 76

NC(=O)[C@@H](C1CCC(F)(F)CC1)[C@@H](CCC(F)(F)F)C(=O)N[C@H]1N=C(c2cccc(F)c2)c2cccc(OC3CC3)c2NC1=O has a reported half-life at 0.5 µM of 80

====

# Test: Human metabolic stability half-life assay
# Assay type: in vitro ADME
# Experimental conditions: pH 7.4; human liver microsomes, NADPH, 0.5 μM compound, 45-minute time course; read-out: HLM (t1/2, min)
Quantity name: half-life at 0.5 µM (min)
// units = min; emit number, no label

NC(=O)[C@@H](CCCF)[C@@H](CCC(F)(F)F)C(=O)N[C@H]1N=C(c2ccccc2)c2cccc(Cl)c2NC1=O [Example 20] has a reported half-life at 0.5 µM of 107

Cc1cccc(C2=N[C@H](NC(=O)[C@H](CCC(F)(F)F)[C@H](CC3CC(F)(F)C3)C(N)=O)C(=O)Nc3c(F)cccc32)c1 [Example 11] has a reported half-life at 0.5 µM of 46

NC(=O)[C@@H](CC1CC(F)(F)C1)[C@@H](CCC(F)(F)F)C(=O)N[C@H]1N=C(c2ccccc2)c2ccccc2NC1=O [Example 15] has a reported half-life at 0.5 µM of 35

====

# Tested on: human Notch 1
# Test: Notch-CBF1 Transactivation Assay (Notch 1)
# Format: cell-based
# Experimental conditions: read-out: Notch 1 (IC50); HeLa cells transfected with truncated Notch 1 and CBF1 luciferase reporter; 18 hours; average of N experiments
Quantity name: pIC50
pIC50 is a log-scale quantity: -log10 of the concentration expressed in molar.

Reference set, count: 3
Cc1cccc(C2=N[C@H](NC(=O)[C@H](CCC(F)(F)F)[C@H](CC3CC(F)(F)C3)C(N)=O)C(=O)Nc3c(Cl)cccc32)c1 : 8.77
CC(F)(F)C[C@H](C(N)=O)[C@@H](CCC(F)(F)F)C(=O)N[C@H]1N=C(c2ccccc2)c2ccccc2NC1=O : 8.57
COc1ccc2c(c1)NC(=O)[C@@H](NC(=O)[C@H](CCC(F)(F)F)[C@H](CCCF)C(N)=O)N=C2c1ccccc1 : 8.24

Value (pIC50, human Notch 1) for record NC(=O)[C@@H](CCCF)[C@@H](CCC(F)(F)F)C(=O)N[C@H]1N=C(c2ccccc2)c2cccc(Cl)c2NC1=O = 7.97

====

# Tested on: human Notch 1
# Test: Notch-CBF1 Transactivation Assay (Notch 1)
# Type: cell-based
# Experimental conditions: read-out: Notch 1 (IC50); HeLa cells transfected with truncated Notch 1 and CBF1 luciferase reporter; 18 hours; average of N experiments
Quantity name: IC50 (nM)
// units = nM; emit number, no label

COc1cccc2c1NC(=O)[C@@H](NC(=O)[C@H](CCC(F)(F)F)[C@H](CCC(C)(F)F)C(N)=O)N=C2c1ccccc1 [Example 21] : 7.5
NC(=O)[C@@H](CC1CC(F)(F)C1)[C@@H](CCC(F)(F)F)C(=O)N[C@H]1N=C(c2ccccc2)c2cccc(OC3CC3)c2NC1=O [Example 7] : 3.9
Cc1cccc(C2=N[C@H](NC(=O)[C@H](CCC(F)(F)F)[C@H](CC3CC(F)(F)C3)C(N)=O)C(=O)Nc3c(F)cccc32)c1 [Example 11] : 2.1
Cc1cccc2c1NC(=O)[C@@H](NC(=O)[C@H](CCC(F)(F)F)[C@H](CC1(F)CCC1)C(N)=O)N=C2c1ccccc1 [Example 25] : 3.8
NC(=O)[C@@H](C1CCC(F)(F)CC1)[C@@H](CCC(F)(F)F)C(=O)N[C@H]1N=C(c2ccccc2)c2cccc(Cl)c2NC1=O [Example 5] : 4.4
NC(=O)[C@@H](C1CCC(C(F)(F)F)CC1)[C@@H](CCC(F)(F)F)C(=O)N[C@H]1N=C(c2ccccc2)c2cccc(Cl)c2NC1=O (stereo partly drawn) [Example 4] : 11.9
NC(=O)[C@@H](C1CCC(F)(F)CC1)[C@@H](CCC(F)(F)F)C(=O)N[C@H]1N=C(c2cccc(F)c2)c2cccc(OC3CC3)c2NC1=O [Example 3] : 4.2
COc1cccc2c1NC(=O)[C@@H](NC(=O)[C@H](CCC(F)(F)F)[C@H](CC1CC(F)(F)C1)C(N)=O)N=C2c1ccccc1 [Example 8] : 2.9

Value (IC50, human Notch 1) for record NC(=O)[C@@H](CC1CC(F)(F)C1)[C@@H](CCC(F)(F)F)C(=O)N[C@H]1N=C(c2ccccc2)c2cccc(F)c2NC1=O [Example 14] = 4.5

Value (IC50, human Notch 1) for record NC(=O)[C@@H](CC1CC(F)(F)C1)[C@@H](CCC(F)(F)F)C(=O)N[C@H]1N=C(c2ccccc2)c2cccc(C3CC3)c2NC1=O [Example 12] = 5.6

Value (IC50, human Notch 1) for record Cc1cccc2c1NC(=O)[C@@H](NC(=O)[C@H](CCC(F)(F)F)[C@H](CC1CC(F)(F)C1)C(N)=O)N=C2c1ccccc1 [Example 1] = 3

Value (IC50, human Notch 1) for record Cc1cccc2c1NC(=O)[C@@H](NC(=O)[C@H](CCC(F)(F)F)[C@H](CC1CC(F)(F)C1)C(N)=O)N=C2c1cccc(F)c1 [Example 9] = 3.5

Value source: patent US9427442B2
